Ref: paper PMC10394516

assay: Plasma PK of brensocatib, BID vs QD oral dosing, BALB/c mice; type: in vivo; conditions: both sexes, BALB/c, mouse, po, 30 mg/kg/day, oral QD, 30 mg/kg/day, read-out: t1/2, AM dose (converted)
measurement kind: half-life
Express the reported value numerically, then name its unit.

Give its half-life value. Item: Cn1c(=O)oc2ccc(-c3ccc(C[C@@H](C#N)NC(=O)[C@@H]4CNCCCO4)cc3)cc21 2.56 h

###

assay: Plasma PK of brensocatib, BID vs QD oral dosing, Wistar rats; type: in vivo; details: both sexes, rat, oral BID, 20 mg/kg/day, first 24 h, read-out: AUC0–24h
measurement kind: AUC(0-t)

Fill in the blank: the reported AUC(0-t) of Cn1c(=O)oc2ccc(-c3ccc(C[C@@H](C#N)NC(=O)[C@@H]4CNCCCO4)cc3)cc21 is ____. 173 µg·h/mL

###

assay: Plasma PK of brensocatib, BID vs QD oral dosing, Sprague Dawley rats; assay type: in vivo; settings: both sexes, Sprague-Dawley, rat, po, 30 mg/kg/day, SD rats, oral QD, 30 mg/kg/day, read-out: t1/2, AM dose (converted)
measurement kind: half-life (h)
Give just the number in h; leave the unit off.

Sample Cn1c(=O)oc2ccc(-c3ccc(C[C@@H](C#N)NC(=O)[C@@H]4CNCCCO4)cc3)cc21 — what was its half-life? 3.88

###

Assay: Plasma PK of brensocatib, BID vs QD oral dosing, Wistar rats
Format: in vivo
Conditions: both sexes, Wistar, rat, po, 20 mg/kg/day, oral BID, 20 mg/kg/day, evening dose, read-out: t1/2, PM dose (converted)
Procedure: A dose frequency study was performed in male and female mice (C57BL/6 & BALB/c) and in male and female rats (Sprague Dawley & Wistar) investigating twice daily (BID) versus once daily (QD) brensocatib administration. Briefly, animals were weighed and randomized into different treatment groups. […] For sparse PK analysis via LC-MS/MS, plasma was collected from animals during the first 24 h of dosing at prescribed timepoints. […] See section Quantification of Plasma Brensocatib Concentrations for details. […]
measurement kind: half-life (h)
# number only, unit h dropped from output

# get_value(readout='half-life', item= Cn1c(=O)oc2ccc(-c3ccc(C[C@@H](C#N)NC(=O)[C@@H]4CNCCCO4)cc3)cc21 ) 4.33

###

assay: Plasma PK of brensocatib, BID vs QD oral dosing, Wistar rats; format: in vivo; details: both sexes, Wistar, rat, po, 30 mg/kg/day, oral QD, 30 mg/kg/day, read-out: t1/2, AM dose (converted)
measurement kind: half-life (h)
Numbers only; they are read as h.

Quick one: half-life of Cn1c(=O)oc2ccc(-c3ccc(C[C@@H](C#N)NC(=O)[C@@H]4CNCCCO4)cc3)cc21 ? 4.41

###

test: Plasma PK of brensocatib, BID vs QD oral dosing, C57BL/6 mice; type: in vivo; settings: both sexes, mouse, C57BL/6 mice, oral BID, 2 mg/kg/day, first 24 h, read-out: AUC0–24h
measurement kind: AUC(0-t)

What AUC(0-t) value was documented for this compound, Cn1c(=O)oc2ccc(-c3ccc(C[C@@H](C#N)NC(=O)[C@@H]4CNCCCO4)cc3)cc21 [brensocatib] ? 2010 ng·h/mL

###

test: Plasma PK of brensocatib, BID vs QD oral dosing, BALB/c mice; format: in vivo; conditions: both sexes, BALB/c, mouse, po, 2 mg/kg/day, oral BID, 2 mg/kg/day, first 24 h, read-out: AUC0–24h
measurement kind: AUC(0-t) (ng·h/mL)
# number only, unit ng·h/mL dropped from output

I would be grateful if you could share the reported AUC(0-t) for Cn1c(=O)oc2ccc(-c3ccc(C[C@@H](C#N)NC(=O)[C@@H]4CNCCCO4)cc3)cc21 [brensocatib] . 1510
